# target.under.test: T1, human TfR ectodomain fused to a mouse IgG1 Fc fragment (human, UniProt P02786 89-760)
# T1 construct: extracellular domain; ectodomain fused to the N-terminal end of the Fc, made in-house; not shown: mouse IgG1 Fc fragment
# method.notes: SPR, kinetic
observable: kon
Field: value (include unit after the number)

Example entries and their recorded answers appear below.
# binder, observable, result
rows = [
    ("C5^h19 (VHH) VHH: EVQLVESGGGVVQPGGSLRLSCAASGTDFSINFIRWYRQAPGKQREFVAGFTATGNTNYADSVKGRFTISRDNAKNTLYLQMNSLRPEDTAVYYCYMLDKWGQGTQVTVSS", "kon", "624000 M⁻¹ s⁻¹"),
    ("C5^V30 (VHH) VHH: EVQLVESGGGVVQPGGSLKLSCVASGTDKSINFIRWYRQAPGKQREFVAGFTATGNTNYADSMKGRFTISRDNTKNAVYLQIDSLKPEDTAVYYCYMLDKWGQGTQVTVSS", "kon", "319000 M⁻¹ s⁻¹"),
    ("B8^V31 (VHH) VHH: EVQLVESGGGVVQPGGSLRLSCAASGEIKSINFMRWYRQAPGKQREWVAGFTRDGSTNYPDSAKGRFTISRDNAKNTVYLQIDSLKPEDTAVYYCYMLDTWGQGTQVTVSS", "kon", "364000 M⁻¹ s⁻¹"),
]

Request: I have this binder here, B8^V34 (VHH) VHH: EVQLVESGGGVVQPGGSLRLSCAASGEIRSINFMRWYRQAPGKQREWVAGFTRDGSTNYPDIAKGRFTISRDNAKNTVYLQIDSLKPEDTAVYYCYMLDTWGQGTQVTVSS , and I need its recorded kon.
Result: 733000 M⁻¹ s⁻¹
